Reference source for all entries: patent US11999727B2

- Tested on: HAP1 MTAP-deleted cell line
- EXPERIMENTAL PROTOCOL: SDMA in-cell western assay, HAP1 MTAP-deleted
- Assay type: cell-based
- SETUP CONDITIONS: Homo sapiens, HAP1, SDMA in-cell western, HAP1 MTAP-deleted; read-out: HAP 1 MTAP deleted IC50
// values below are reported IC50

Completed entries (count: 3):
{"COMPOUND": "Cc1nc2cc([C@H]3CC[C@H](C)CN3C(=O)C(=O)Nc3cncc(C(N)=O)c3)ccc2s1 (single isomer, unassigned) [Compound 702]", "IC50": "> 1 µM"}
{"COMPOUND": "CCc1cc(NC(=O)C(=O)N2C[C@@H](C)CC[C@@H]2c2ccc3sc(C4CCN(C)C4)nc3c2)cnc1N (some centres unmarked) [Compound 1383]", "IC50": "< 0.1 µM"}
{"COMPOUND": "Cc1cc(NC(=O)C(=O)N2C[C@@H](C)CC[C@@H]2c2ccc3[nH]ncc3c2)cnc1C (single isomer, unassigned) [Compound 620]", "IC50": "< 0.1 µM"}

Consider CC(=O)Nc1cccc([C@@H]2CC[C@@H](C)CN2C(=O)C(=O)Nc2cncc(C)c2)c1 (racemic) [Compound 110] . Its measured IC50 is > 1 µM

Consider C[C@H]1CC[C@H](c2ccc3sc(C(F)(F)F)nc3c2)N(C(=O)C(=O)Nc2cncc(C(N)=O)c2)C1 (single isomer, unassigned) [Compound 1023] . Its measured IC50 is < 0.1 µM

Consider Cc1cc(NC(=O)C(=O)N2C[C@@H](C)CC[C@@H]2c2cccc(C3CCN(C)CC3)c2)cnc1N (single isomer, unassigned) [Compound 1253] . Its measured IC50 is < 0.1 µM

Consider Cc1cc([C@@H]2CC[C@@H](C)CN2C(=O)C(=O)Nc2cncc(C(N)=O)c2)ccc1F (racemic) [Compound 131] . Its measured IC50 is < 0.1 µM

Consider CNc1ccc([C@@H]2CCC[C@H](C)N2C(=O)C(=O)Nc2cncc(C(N)=O)c2)cn1 (racemic) [Compound 561] . Its measured IC50 is 0.1 to 1 µM

Consider C[C@@H]1CC[C@@H](c2cccnc2)N(C(=O)C(=O)Nc2cncc(C(N)=O)c2)C1 (racemic) [Compound 102] . Its measured IC50 is 0.1 to 1 µM

Consider Cc1cncc(NC(=O)C(=O)N2C[C@@H](C)CC[C@@H]2c2cccc(Cl)c2)c1 (single isomer, unassigned) [Compound 87] . Its measured IC50 is > 1 µM

Consider CCc1cc(NC(=O)C(=O)N2C[C@@H](C)CC[C@@H]2c2ccc3sc(C4CCOC4)nc3c2)cnc1N (some centres unmarked) [Compound 1242] . Its measured IC50 is < 0.1 µM

Consider C[C@H]1CC[C@H](c2ccc3c(c2)CCN(C)C3)N(C(=O)C(=O)Nc2cnc(N)c(C3CC3)c2)C1 [Compound 1264] . Its measured IC50 is < 0.1 µM

Consider CNC(=O)c1cccc([C@H]2CC[C@H](C)CN2C(=O)C(=O)Nc2cncc(C)c2)c1 (racemic) [Compound 48] . Its measured IC50 is > 1 µM

Consider Cc1cc(NC(=O)C(=O)N2C[C@H](C)CC[C@H]2C2CCCC(C)(C)C2)cnc1N (mixture of isomers) [Compound 150] . Its measured IC50 is 0.1 to 1 µM

Consider Cc1cc(NC(=O)C(=O)N2C[C@H](C)[C@H](OC(F)(F)F)C[C@H]2c2ccc(F)cc2)cnc1N (single isomer, unassigned) [Compound 1323] . Its measured IC50 is > 1 µM

Consider COc1ncc(NC(=O)C(=O)N2C[C@@H](C)CC[C@@H]2c2cccc3[nH]ncc23)cc1C(N)=O (single isomer, unassigned) [Compound 918] . Its measured IC50 is < 0.1 µM

Consider Cc1cc(NC(=O)C(=O)N2CCCC[C@H]2c2ccccc2)cnc1N (single isomer, unassigned) [Compound 55] . Its measured IC50 is > 1 µM

Consider COc1ncc(NC(=O)C(=O)N2C[C@@H](C)CC[C@H]2c2ccc(C)cn2)cc1C(N)=O (racemic) [Compound 886] . Its measured IC50 is > 1 µM

Consider CC(=O)N[C@H]1C[C@H]([C@H]2CC[C@H](C)CN2C(=O)C(=O)Nc2cnc(N)c(C)c2)C1 (single isomer, unassigned) [Compound 563] . Its measured IC50 is > 1 µM

Consider Cc1cc(NC(=O)C(=O)N2C[C@@H](C)CC[C@@H]2c2ccc(C(F)F)nc2)cnc1N (single isomer, unassigned) [Compound 1018] . Its measured IC50 is 0.1 to 1 µM
